B1: TPR t1 (parent)
chain: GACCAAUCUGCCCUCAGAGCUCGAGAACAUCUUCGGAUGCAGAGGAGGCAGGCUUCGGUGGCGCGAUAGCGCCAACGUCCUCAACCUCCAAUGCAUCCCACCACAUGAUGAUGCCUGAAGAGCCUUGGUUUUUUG

# Variants of: B1
# Test name: polymerase ribozyme fitness, log enrichment relative to wild type (log ratio); higher = more active; in vitro selection for triplet polymerase activity
Kindly supply the reported polymerase ribozyme fitness (log ratio) values for the records listed here.
Numbers only.

[
  {
    "Mutation label": "A5G C94A U129G",
    "polymerase ribozyme fitness (log ratio)": -1.49
  },
  {
    "Mutation label": "G45U G110A",
    "polymerase ribozyme fitness (log ratio)": -2.13
  },
  {
    "Mutation label": "G19C G42U U92A",
    "polymerase ribozyme fitness (log ratio)": -2.69
  },
  {
    "Mutation label": "C15U G17A C40G C64A A90G C94A C104G G120C",
    "polymerase ribozyme fitness (log ratio)": -7.98
  },
  {
    "Mutation label": "C82A C102A",
    "polymerase ribozyme fitness (log ratio)": -2.33
  }
]

I need polymerase ribozyme fitness (log ratio) for every entry listed below, if you could help.
1. C56G U116C U130G
2. A46U A100U

-0.701
-1.69
